Biological target: GABA-A receptor; alpha-3/beta-3/gamma-2 (Homo sapiens, UniProt P18507+P28472+P34903)
Sequence (P18507 whole entry): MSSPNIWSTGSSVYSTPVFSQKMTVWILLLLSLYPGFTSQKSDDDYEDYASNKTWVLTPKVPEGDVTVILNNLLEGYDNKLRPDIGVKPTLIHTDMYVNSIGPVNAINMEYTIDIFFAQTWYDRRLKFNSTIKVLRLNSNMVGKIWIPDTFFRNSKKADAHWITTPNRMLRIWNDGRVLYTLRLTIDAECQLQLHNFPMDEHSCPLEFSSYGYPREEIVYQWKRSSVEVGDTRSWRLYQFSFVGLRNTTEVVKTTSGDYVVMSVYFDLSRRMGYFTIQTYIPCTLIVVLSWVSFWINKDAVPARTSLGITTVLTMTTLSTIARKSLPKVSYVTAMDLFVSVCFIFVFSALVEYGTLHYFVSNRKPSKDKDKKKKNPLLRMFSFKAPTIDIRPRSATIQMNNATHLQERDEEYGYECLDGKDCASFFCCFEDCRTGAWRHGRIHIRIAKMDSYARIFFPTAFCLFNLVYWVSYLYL
Sequence (P28472 whole entry): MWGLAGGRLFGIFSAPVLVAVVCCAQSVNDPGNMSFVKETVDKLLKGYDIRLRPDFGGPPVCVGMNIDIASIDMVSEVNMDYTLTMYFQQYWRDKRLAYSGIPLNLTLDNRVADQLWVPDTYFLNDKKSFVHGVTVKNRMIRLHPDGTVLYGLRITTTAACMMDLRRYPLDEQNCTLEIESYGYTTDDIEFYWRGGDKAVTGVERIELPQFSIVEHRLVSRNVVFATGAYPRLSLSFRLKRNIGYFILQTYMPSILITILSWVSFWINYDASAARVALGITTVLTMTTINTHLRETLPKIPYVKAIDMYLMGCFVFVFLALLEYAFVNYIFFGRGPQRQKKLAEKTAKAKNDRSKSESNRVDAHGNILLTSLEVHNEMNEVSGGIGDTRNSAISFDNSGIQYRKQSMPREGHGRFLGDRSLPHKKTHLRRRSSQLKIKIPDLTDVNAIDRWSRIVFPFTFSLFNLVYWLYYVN
Sequence (P34903 whole entry): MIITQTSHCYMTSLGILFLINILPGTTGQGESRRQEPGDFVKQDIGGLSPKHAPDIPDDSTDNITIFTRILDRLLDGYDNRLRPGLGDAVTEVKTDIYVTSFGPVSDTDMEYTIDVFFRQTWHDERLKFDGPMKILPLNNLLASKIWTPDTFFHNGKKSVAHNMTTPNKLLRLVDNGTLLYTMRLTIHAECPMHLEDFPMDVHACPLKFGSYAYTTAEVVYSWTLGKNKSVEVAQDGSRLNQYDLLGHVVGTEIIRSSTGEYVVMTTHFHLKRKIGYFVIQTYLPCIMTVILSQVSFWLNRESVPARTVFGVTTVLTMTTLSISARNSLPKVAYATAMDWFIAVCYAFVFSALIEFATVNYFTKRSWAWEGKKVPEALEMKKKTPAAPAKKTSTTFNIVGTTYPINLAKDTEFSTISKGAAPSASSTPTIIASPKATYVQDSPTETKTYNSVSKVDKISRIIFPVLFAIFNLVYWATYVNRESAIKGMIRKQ
Test: Binding affinity for human recombinant gamma-aminobutyric-acid (GABA) A receptor alpha-3-beta-3-gamma-2
MEASURE NAME: Ki (nM)
Please reply with the bare figure in nM and do not write the unit itself.

Use these answered entries as a reference point.
1) COC(=O)c1cc2c(cn1)[nH]c1ccc(NCc3ccccc3)cc12; 48.9
2) CN1C(=O)CN=C(c2cccs2)c2cc(F)ccc21; 205
3) COC(=O)c1cc2c3cc(NCc4ccc5ccccc5c4)ccc3nc-2c[nH]1; 271
4) CCOC(=O)c1ncn2c1[C@@H]1CCCN1C(=O)c1ccccc1-2; 7.1
5) CCOC(=O)c1ncn2c1CN(C)C(=O)c1ccccc1-2; 1.1
6) Fc1ccc2c(c1)[nH]c1c3c4ccccc4nc-3c[nH]c12; 18.4
7) O=C1CN=C(c2cccs2)c2cc(F)ccc2N1; 405
8) COC(=O)c1cc2c3cc(SC#N)ccc3nc-2c[nH]1; 30
9) O=c1c2c[nH]c3ccc(Br)cc3c-2nn1-c1ccccc1; 0.05
10) CN1C(=O)CN=C(c2ccccc2)c2cc(C#N)ccc21; 350

Query: For the record "C#Cc1ccc2c(c1)C(c1ccccc1)=NCC(=O)N2C" , what value of Ki is listed for GABA-A receptor; alpha-3/beta-3/gamma-2 (Homo sapiens, UniProt P18507+P28472+P34903)?
Response: 47.4

Query: What about "CN1Cc2c(C(=O)OC(C)(C)C)ncn2-c2ccc(N=[N+]=[N-])cc2C1=O" ?
Response: 9.84

Query: Another: "CN1C(=O)CN=C(c2cccs2)c2cc(Cl)ccc21"
Response: 13.4

Query: Entry to check: "c1cnc2c3[nH]cc4[nH]c5ccccc5c4c-3nc2c1"
Response: 156

Query: Again, but for "C#Cc1ccc(-n2[nH]c3c(cnc4ccccc43)c2=O)cc1"
Response: 0.04
